System: SK-MEL-5 melanoma
Method: NCI-60 one-dose screen, 48 h (100 = growth as untreated, 0 = no growth, -100 = all killed)
Condition: 10 µM unless noted
This is part of a sample that, as a whole, favours compounds with a hit. Of some 83,000 tested, about 20% had one in any assay.
Measured growth accompanies every entry in the list below.
Assay metric: growth (%)

* O=C(O)c1ccc(-n2cc(CNc3cc(F)c(F)c(F)c3)c(-c3ccc(F)cc3)n2)cc1 | 81.2
* CCc1ccc(SC2c3ccc(N(CC)CC)cc3Oc3nc(N)c(C#N)c(N)c32)cc1 (centres undefined) | -97
* NS(=O)(=O)c1ccc(Nc2nc(N/N=C/c3ccc(Cl)cc3)nc(Nc3ccccc3)n2)cc1 | 69.1
* CCNC(=O)N1CCc2cc(OC)c(OCCc3ccc(OC)cc3)cc2C1c1ccc(Cl)cc1C (centres undefined) | -10.8
* CS(=O)(=O)Nc1cc(-c2ccc3ncc(C#N)c(NCc4ccccc4F)c3c2)cnc1Cl | -93.6
* O=C1Nc2ccccc2/C1=C/c1ccc(CO)n1-c1ccc(Cl)cc1 | 51.9
* Nc1nc(N)c2c(n1)NC(c1ccc(Cl)cc1)CC(c1ccc(Nc3nc(NCCO)nc(N4CCOCC4)n3)cc1)=N2 (centres undefined) | 67.4
* COc1ccc2c(c1)c(CC(=O)[Se]CCC#N)c(C)n2C(=O)c1ccc(Cl)cc1 | -73.4
* CN1CCN(c2ccc(/C=N/Nc3nc4ccccc4c(=O)n3-c3ccccc3)cc2)CC1 | 92.4

###

Test system: SK-OV-3 ovarian
Method: NCI-60 one-dose screen, 48 h (100 = growth as untreated, 0 = no growth, -100 = all killed)
Condition: 10 µM unless noted
About 83,000 compounds went through this panel and 20% of them were active in at least one assay; those are over-represented in the sample as a whole. Activity calls are given as the source filed them. The calls were made as follows: active = growth percent below 10; inactive = the rest.
Measured growth accompanies every entry in the list below.
Assay metric: growth

* C[C@H](CCC(=O)NCc1ccc(C(=O)Nc2ccccc2N)cc1)[C@H]1CC[C@H]2[C@@H]3[C@@H](O)C[C@@H]4C[C@H](O)CC[C@]4(C)[C@H]3CC[C@]12C | 73.7% (inactive)
* COc1ccc2c(c1)c(CC(=O)[Se]CCC#N)c(C)n2C(=O)c1ccc(Cl)cc1 | 22.3% (inactive)
* COc1ccc(C(=O)Nc2ncc(Cc3ccccc3Cl)s2)cc1 | 29% (inactive)
* COc1ccccc1-n1cc(C#N)c(N)c1C(=O)c1ccc(Cl)cc1 | 101% (inactive)
* NC(N)=Nc1ccc(Oc2cccc(Nc3ccc(Br)c(C(F)(F)F)c3)c2)cn1 | 32.2% (inactive)
* CS(=O)(=O)Nc1cc(-c2ccc3ncc(C#N)c(NCc4ccccc4F)c3c2)cnc1Cl | -13.7% (active)
* Clc1ccc(N/N=c2/oc3ccccc3cc2-c2cc3ccccc3[nH]2)cc1 | 89.6% (inactive)
* COc1cc2nc(Cl)nc(Nc3cccc(C4=Nc5c(N)nc(N)nc5NC(c5ccc(Cl)cc5)C4)c3)c2cc1OC (centres undefined) | 124% (inactive)
* O=C(O)c1ccc(-n2cc(CNc3cc(F)c(F)c(F)c3)c(-c3cccc(F)c3)n2)cc1 | 113% (inactive)

###

Test system: SW-620 colon
Method: NCI-60 one-dose screen, 48 h (100 = growth as untreated, 0 = no growth, -100 = all killed)
Condition: 10 µM unless noted
Compounds without any hit were thinned out: in the full panel of roughly 83,000, 20% have a hit. Active and inactive are the calls of the source. The calls were made as follows: active = growth percent below 10; inactive = the rest.
Measured growth accompanies every entry in the list below.
Assay metric: growth

• CS(=O)(=O)c1ccc(-c2nn(-c3ccccc3)cc2/C=N/NC(=O)c2nc(N)n[nH]2)cc1 = 88.4% (inactive)
• CC1(COc2ccc3ncc(C#Cc4cncc(C(=O)Nc5cccc(C(F)(F)F)c5)c4)n3n2)COC1 = 69% (inactive)
• CC(=O)Nc1cccc(Nc2nc(N[C@H](C)c3ccccc3)c3ccccc3n2)c1 = 61.5% (inactive)
• Nc1nc(-c2cccc([N+](=O)[O-])c2)c(N=Nc2ccc(Br)cc2)s1 = -34.5% (active)
• O=C1[C@H]2Cc3c([nH]c4ccccc34)[C@@H](c3c(Cl)cccc3Cl)N2C(=O)CN1C1CCN(CC2CCCCC2)CC1 = 65.8% (inactive)

###

Test system: OVCAR-3 ovarian
Method: NCI-60 one-dose screen, 48 h (100 = growth as untreated, 0 = no growth, -100 = all killed)
Condition: 10 µM unless noted
About 83,000 compounds went through this panel and 20% of them were active in at least one assay; those are over-represented in the sample as a whole.
Please use T whenever growth is not below 20%, and F whenever it is.

* CS(=O)(=O)Nc1cc(-c2ccc3ncc(C#N)c(NCc4ccccc4)c3c2)cnc1Cl | F
* Cc1ccc(-c2cc3nc(C(Cl)Cl)nc(C)n3n2)cc1 | T
* O=C1Nc2ccccc2/C1=C/c1ccc(COCC2CO2)n1-c1ccc(O)cc1 (configuration not stated) | T
* c1ccc(C(c2nc3ncncc3[nH]2)N2CSc3nc4ncncc4n3C2)cc1 (configuration not stated) | T
* O=C(NNc1nc2cc(F)ccc2n2c(CN3CCC(O)C3)ccc12)c1cnccn1 (configuration not stated) | T
* CCc1nn2c(C)cc(C)nc2c1Cc1ccc(/C=C/CN2CCN(CCOCCOCCN3CCN(C/C=C/c4ccc(Cc5c(CC)nn6c(C)cc(C)nc56)cc4)CC3)CC2)cc1 | F
* N#Cc1c(-c2cccs2)cc(-c2cnccn2)nc1SCC(=O)Nc1ccc(Br)cc1 | T
* COc1cc(OC)c(/C=C/S(=O)(=O)Cc2ccc(OC)c(NC(=O)CCC(=O)NO)c2)c(OC)c1 | F
* CCCCc1nc(/C=N/Nc2nc(Nc3ccccc3)nc(Nc3ccc(S(N)(=O)=O)cc3)n2)c(Cl)[nH]1 | T
* O=C(NNc1nc2cc(F)ccc2n2c(CO)ccc12)c1cnccn1 | T
* CCCCCc1ccc(S(=O)(=O)Nc2cccc(-c3csc(NCCN4CCN(C)CC4)n3)c2)cc1 | T
* COc1c(N2CC3CCCNC3C2)c(F)cc2c(=O)c(C(=O)N/N=C/c3ccc(N(C)C)cc3)cn(C3CC3)c12 (configuration not stated) | T
* CCO/C=N/C1=C(C#N)C(c2ccc(Cl)cc2)c2sc3c(C)cccc3c2O1 (configuration not stated) | F
* CCO/C=N/C1=C(C#N)C(c2ccc(OC)cc2)c2sc3c(C)cccc3c2O1 (configuration not stated) | F
* O=S(=O)(NCCCNc1nccc(-c2[nH]c(-c3ccccc3)nc2-c2ccc(Cl)c(O)c2)n1)c1cccc2ccccc12 | F
* O=C(NCCn1ccnc1)c1ccc(-c2nc3ccc4[nH]ncc4c3c3c2CCCC3)cc1 | T
* Cc1ccc(-c2nnc(SCc3ccc(O)c4ncccc34)n2-c2ccccc2)cc1 | F
* Oc1[nH]c2ccccc2c1Nn1c(N=N/C=c2/ccc3c(c2)C=NN=3)n[nH]c1=S | T
* O=C(CSc1nc2ccccc2c(=O)n1-c1ccc(Cl)cc1)N/N=C/c1ccc(N2CCCCC2)cc1 | T
* Nc1ccccc1NC(=O)c1ccc(NC(=O)C/C=C/c2cccnc2)cc1 | T
* CC(=O)N1C(=S)NC(=O)C1CC(C)C (configuration not stated) | T
* Cn1ccnc1C(=O)/C=C/c1ccc(CNC(=O)c2ccc(S(F)(F)(F)(F)F)cc2)cc1 | F
* Cc1cccc2c3c(sc12)C(c1ccc(Cl)cc1)c1c(nc(CC(=O)Nc2ccccc2)[nH]c1=O)O3 (configuration not stated) | T
* COC(=O)/C=C/c1c(C2(C)NC(=O)c3ccccc3N2)c(=O)oc2ccc(Cl)cc12 (configuration not stated) | T
* O=C(Nc1cccc(C(F)(F)F)c1)c1cc(-c2ccc(F)cc2F)ccc1O | F
* CC1(C)CC[C@]2(C(=O)O)CC[C@]3(C)C(=CC[C@@H]4[C@@]5(C)CC/C(=N\OCCC#N)C(C)(C)[C@@H]5CC[C@]43C)[C@@H]2C1 | T
* COc1cc(/C=C2\C(=O)Nc3ccccc32)ccc1OCc1ccc(F)cc1 | T
* COc1ccc2c(c1)c(CC(=O)[Se]CC(=O)O)c(C)n2C(=O)c1ccc(Cl)cc1 | T
* O=S(=O)(NCCCNc1nccc(-c2[nH]c(-c3ccccc3)nc2-c2ccc(Cl)c(O)c2)n1)c1ccc(Br)cc1 | T
* COc1ccc(-c2nc(C(Cl)Cl)nc3cc(-c4ccccc4)nn23)cc1 | F
* COc1cc2nc(Cl)nc(Nc3cccc(C4=Nc5c(N)nc(N)nc5NC(c5ccc6c(c5)OCO6)C4)c3)c2cc1OC (configuration not stated) | T
* Cc1ccc(-c2nnc(SCc3ccc(O)c4ncccc34)o2)cc1 | T
* CC(C)(C)c1ccc(CC(=O)Nc2sc3c(c2C(N)=O)CCC(=O)C3)cc1 | F
* CCCCCc1ccc(S(=O)(=O)Nc2cccc(-c3csc(NC(=O)CCCCCN4CCN(CCO)CC4)n3)c2)cc1 | T
* O=C(Nc1nc2ccc([N+](=O)[O-])cc2s1)Nc1ccccc1Cl | F
* N=c1c2cc(-c3ccccc3)oc2ncn1/N=C/c1ccc(Br)cc1 | F
* N#Cc1cnc2ccc(-c3cnc4[nH]ncc4c3)cc2c1N1CCc2cc(F)c(Cl)cc21 | F
